Measured IC50 values are reported for all entries that follow.
Molecular target: HIV-1 RT (Human immunodeficiency virus type 1 group M subtype B, UniProt P03366)
Assay: HIV Reverse Transcriptase Assay: Inhibitor IC50 determination
Format: biochemical
Details: TABLE I; purified recombinant enzyme, poly(rA)/oligo(dT)16 template-primer; read-out: HIV-RT IC50 RT

So what's the measured IC50 for this one? CC1(C)OC(Cc2ccc(Cl)c(Oc3cccc(Br)c3)c2)=NNC1=O > 10000 nM

Moving on to the next molecule: C[C@@H]1NC(Cc2ccc(Cl)c(Oc3cccc(Br)c3)c2)=NNC1=O 4520 nM

More entries:
// lookup IC50 for CC1OC(Cc2ccc(Cl)c(Oc3cc(Cl)cc(Br)c3)c2F)=NNC1=O (stereo not drawn) 24.7 nM

Entry to check: C[C@@H]1NC(Cc2ccc(Cl)c(Oc3cc(Cl)cc(C#N)c3)c2F)=NNC1=O 11.9 nM

Please do the same for O=C1CCC(Cc2ccc(Cl)c(Oc3ccccc3)c2)=NN1 as well. 2630 nM

Thanks! And C[C@H]1CC(Cc2ccc(Cl)c(Oc3cccc(Br)c3)c2)=NNC1=O ? 65.4 nM
